test: Selectivity ratio of CC50 for cytotoxicity against African green monkey Vero cells to MIC for antifungal activity against Cryptococcus gattii NR 43216; format: toxicity, cell-based
Provide the reported selectivity ratio of each item.
One number for each entry.

compound	selectivity ratio
Cc1nc(-c2ccc3ccccc3c2)sc1-c1nnc(N[C@@H]2CCCC[C@@H]2N)o1 (relative stereo)	64

*Q* Entry Cc1nc(-c2ccc3ccccc3c2)sc1-c1nnc(N[C@@H]2CCCC[C@H]2N)o1 (relative stereo) has what selectivity ratio?
*A* 64

---

system: Cryptococcus neoformans; assay: Antifungal activity against Cryptococcus neoformans NR 41299 assessed as inhibition of fungal growth incubated for 48 hrs by broth microdilution method; assay type: functional
For each record, write down the corresponding MIC.
Give bare numbers, in µg/mL.

compound	unitAbbreviation	valueReported
Cc1nc(-c2ccc3ccccc3c2)sc1-c1nnc(N[C@@H]2CCCC[C@H]2N)o1 (relative stereo)	µg/mL	1
Cc1nc(-c2ccc3ccccc3c2)sc1-c1nnc(N[C@@H]2CCCC[C@@H]2N)o1 (relative stereo)	µg/mL	2

Required: MIC, one value per compound below.
1. C[C@@H]1[C@H](O)[C@@H](C)/C=C/C=C/C=C/C=C/C=C/C=C/C=C/[C@H](O[C@@H]2O[C@H](C)[C@@H](O)[C@H](N)[C@@H]2O)C[C@@H]2O[C@](O)(C[C@@H](O)C[C@@H](O)[C@H](O)CC[C@@H](O)C[C@@H](O)CC(=O)O[C@H]1C)C[C@H](O)[C@H]2C(=O)O [AMPHOTERICIN B]
2. OC(Cn1cncn1)(Cn1cncn1)c1ccc(F)cc1F [FLUCONAZOLE]

*A*
1
1

---

assay: Antibacterial activity against Lactobacillus casei HM334 assessed as inhibition of bacterial growth; assay type: toxicity; conditions: lacticaseibacillus casei
measuredMetric: MIC

# example entries with known answers
compound	MIC
OC(Cn1cncn1)(Cn1cncn1)c1ccc(F)cc1F	> 128 µg/mL
Cc1nc(-c2ccc3ccccc3c2)sc1-c1nnc(N[C@@H]2CCCC[C@H]2N)o1 (relative stereo)	> 128 µg/mL
C[C@@H]1[C@H](O)[C@@H](C)/C=C/C=C/C=C/C=C/C=C/C=C/C=C/[C@H](O[C@@H]2O[C@H](C)[C@@H](O)[C@H](N)[C@@H]2O)C[C@@H]2O[C@](O)(C[C@@H](O)C[C@@H](O)[C@H](O)CC[C@@H](O)C[C@@H](O)CC(=O)O[C@H]1C)C[C@H](O)[C@H]2C(=O)O	> 128 µg/mL

*Q* Using the record for Cc1nc(-c2ccc3ccccc3c2)sc1-c1nnc(N[C@@H]2CCCC[C@@H]2N)o1 (relative stereo) , report its MIC.
*A* 128 µg/mL

---

test: Selectivity ratio of CC50 for cytotoxicity against African green monkey Vero cells to MIC for antifungal activity against Cryptococcus neoformans NR 48770; format: toxicity, cell-based
Exercise: for every item that follows, state its recorded selectivity ratio.
One number for each entry.

molecule	measuredMetric	valueReported
Cc1nc(-c2ccc3ccccc3c2)sc1-c1nnc(N[C@@H]2CCCC[C@@H]2N)o1 (relative stereo)	selectivity ratio	64

*Q* Report selectivity ratio for Cc1nc(-c2ccc3ccccc3c2)sc1-c1nnc(N[C@@H]2CCCC[C@H]2N)o1 (relative stereo) please.
*A* 64

---

assay: Selectivity ratio of CC50 for cytotoxicity against African green monkey Vero cells to MIC for antifungal activity against Cryptococcus neoformans NR 48771; format: toxicity, cell-based
measuredMetric: selectivity ratio
Give bare numbers.

molecule	valueReported
Cc1nc(-c2ccc3ccccc3c2)sc1-c1nnc(N[C@@H]2CCCC[C@@H]2N)o1 (relative stereo)	64

Below: the item to evaluate.
*Q* // query selectivity ratio value for entry Cc1nc(-c2ccc3ccccc3c2)sc1-c1nnc(N[C@@H]2CCCC[C@H]2N)o1 (relative stereo)
*A* 64

---

system: Cryptococcus neoformans; experiment: Antifungal activity against Cryptococcus neoformans NR 48773 assessed as inhibition of fungal growth incubated for 48 hrs by broth microdilution method; assay type: functional
measuredMetric: MIC (µg/mL)
Answers are plain numbers, in µg/mL.

molecule	valueReported
C[C@@H]1[C@H](O)[C@@H](C)/C=C/C=C/C=C/C=C/C=C/C=C/C=C/[C@H](O[C@@H]2O[C@H](C)[C@@H](O)[C@H](N)[C@@H]2O)C[C@@H]2O[C@](O)(C[C@@H](O)C[C@@H](O)[C@H](O)CC[C@@H](O)C[C@@H](O)CC(=O)O[C@H]1C)C[C@H](O)[C@H]2C(=O)O [AMPHOTERICIN B]	1

Please report MIC for every entry that follows.
1. OC(Cn1cncn1)(Cn1cncn1)c1ccc(F)cc1F [FLUCONAZOLE]
2. Cc1nc(-c2ccc3ccccc3c2)sc1-c1nnc(N[C@@H]2CCCC[C@@H]2N)o1 (relative stereo)
3. Cc1nc(-c2ccc3ccccc3c2)sc1-c1nnc(N[C@@H]2CCCC[C@H]2N)o1 (relative stereo)

*A*
1: 2; 2: 2; 3: 2

---

test system: [Candida] auris; assay: Antifungal activity against Candida auris 382 assessed as inhibition of fungal growth incubated for 24 hrs by broth microdilution method; format: functional; conditions: Candidozyma auris
measuredMetric: MIC (µg/mL)
One number for each entry, in µg/mL.

# annotated cases, reported MIC shown
compound	MIC, µg/mL
Cc1nc(-c2ccc3ccccc3c2)sc1-c1nnc(N[C@@H]2CCCC[C@H]2N)o1 (relative stereo)	2
Cc1nc(-c2ccc3ccccc3c2)sc1-c1nnc(N[C@@H]2CCCC[C@@H]2N)o1 (relative stereo)	2
C[C@@H]1[C@H](O)[C@@H](C)/C=C/C=C/C=C/C=C/C=C/C=C/C=C/[C@H](O[C@@H]2O[C@H](C)[C@@H](O)[C@H](N)[C@@H]2O)C[C@@H]2O[C@](O)(C[C@@H](O)C[C@@H](O)[C@H](O)CC[C@@H](O)C[C@@H](O)CC(=O)O[C@H]1C)C[C@H](O)[C@H]2C(=O)O [AMPHOTERICIN B]	1

Now for another entry.
*Q* Could you share which MIC value was measured for OC(Cn1cncn1)(Cn1cncn1)c1ccc(F)cc1F [FLUCONAZOLE] ?
*A* 64

---

Kindly state selectivity ratio for each of the entries shown.
experiment: Selectivity ratio of CC50 for cytotoxicity against human Caco-2 cells to MIC for antifungal activity against Cryptococcus neoformans NR 41299; assay type: toxicity, cell-based
Answers are plain numbers.

compound	selectivity ratio
Cc1nc(-c2ccc3ccccc3c2)sc1-c1nnc(N[C@@H]2CCCC[C@H]2N)o1 (relative stereo)	64

Field: next compound
*Q* Sample Cc1nc(-c2ccc3ccccc3c2)sc1-c1nnc(N[C@@H]2CCCC[C@@H]2N)o1 (relative stereo) — what was its selectivity ratio?
*A* 64

---

test: Cmax in Sprague-Dawley rat at 25 mg/kg, po administered as single dose by LC/MS/MS analysis; format: ADME, organism-based; parameters: dose 25 mg/kg, route po; conditions: in vivo
measuredMetric: Cmax (ng/mL)
Give bare numbers, in ng/mL.

*Q* GET /values?readout=Cmax&item= Cc1nc(-c2ccc3ccccc3c2)sc1-c1nnc(N[C@@H]2CCCC[C@H]2N)o1 (relative stereo)
*A* 9400

---

Would you mind telling me the reported MIC of each entry?
test system: Candida parapsilosis; experiment: Antifungal activity against Candida parapsilosis CAB 502638 assessed as inhibition of fungal growth incubated for 24 hrs by broth microdilution method; format: functional; conditions: Lodderomyces parapsilosis
One number for each entry, in µg/mL.

compound	systemName	MIC, µg/mL
C[C@@H]1[C@H](O)[C@@H](C)/C=C/C=C/C=C/C=C/C=C/C=C/C=C/[C@H](O[C@@H]2O[C@H](C)[C@@H](O)[C@H](N)[C@@H]2O)C[C@@H]2O[C@](O)(C[C@@H](O)C[C@@H](O)[C@H](O)CC[C@@H](O)C[C@@H](O)CC(=O)O[C@H]1C)C[C@H](O)[C@H]2C(=O)O	Candida parapsilosis	0.5

// for each compound below, give its MIC
1. OC(Cn1cncn1)(Cn1cncn1)c1ccc(F)cc1F
2. Cc1nc(-c2ccc3ccccc3c2)sc1-c1nnc(N[C@@H]2CCCC[C@@H]2N)o1 (relative stereo)
3. Cc1nc(-c2ccc3ccccc3c2)sc1-c1nnc(N[C@@H]2CCCC[C@H]2N)o1 (relative stereo)

*A*
0.5
1
1

---

Assignment: determine reported selectivity ratio for the given compounds.
assay: Selectivity ratio of CC50 for cytotoxicity against human Caco-2 cells to MIC for antifungal activity against Cryptococcus neoformans NR 41298; type: toxicity, cell-based
Answers are plain numbers.

compound	selectivity ratio
Cc1nc(-c2ccc3ccccc3c2)sc1-c1nnc(N[C@@H]2CCCC[C@@H]2N)o1 (relative stereo)	64

Shift focus to the following entry.
*Q* Which selectivity ratio reading was recorded for the compound Cc1nc(-c2ccc3ccccc3c2)sc1-c1nnc(N[C@@H]2CCCC[C@H]2N)o1 (relative stereo) ?
*A* 64

---

test system: Cryptococcus neoformans; experiment: Antifungal activity against Cryptococcus neoformans NR 41298 assessed as inhibition of fungal growth incubated for 48 hrs by broth microdilution method; type: functional
measuredMetric: MIC

molecule	systemName	MIC
C[C@@H]1[C@H](O)[C@@H](C)/C=C/C=C/C=C/C=C/C=C/C=C/C=C/[C@H](O[C@@H]2O[C@H](C)[C@@H](O)[C@H](N)[C@@H]2O)C[C@@H]2O[C@](O)(C[C@@H](O)C[C@@H](O)[C@H](O)CC[C@@H](O)C[C@@H](O)CC(=O)O[C@H]1C)C[C@H](O)[C@H]2C(=O)O	Cryptococcus neoformans	1 µg/mL
Cc1nc(-c2ccc3ccccc3c2)sc1-c1nnc(N[C@@H]2CCCC[C@@H]2N)o1 (relative stereo)	Cryptococcus neoformans	1 µg/mL

Go through the items and report each one's MIC.
1. OC(Cn1cncn1)(Cn1cncn1)c1ccc(F)cc1F
2. Cc1nc(-c2ccc3ccccc3c2)sc1-c1nnc(N[C@@H]2CCCC[C@H]2N)o1 (relative stereo)

*A*
1. 2 µg/mL
2. 1 µg/mL
